meta.source: patent US10968225B2

molecular target: mutant CFTR (Homo sapiens, UniProt P13569, DEL508-508); construct: expressed in transfected cells; experiment: Fluorescence (HS-YFP) assay for CFTR activity, corrector assay; type: cell-based; settings: CFBE41o- and FRT cells with stable expression of mutant CFTR, read-out: activity (EC50)
Sequence (P13569 with tags, fused parts or gaps DEL508-508): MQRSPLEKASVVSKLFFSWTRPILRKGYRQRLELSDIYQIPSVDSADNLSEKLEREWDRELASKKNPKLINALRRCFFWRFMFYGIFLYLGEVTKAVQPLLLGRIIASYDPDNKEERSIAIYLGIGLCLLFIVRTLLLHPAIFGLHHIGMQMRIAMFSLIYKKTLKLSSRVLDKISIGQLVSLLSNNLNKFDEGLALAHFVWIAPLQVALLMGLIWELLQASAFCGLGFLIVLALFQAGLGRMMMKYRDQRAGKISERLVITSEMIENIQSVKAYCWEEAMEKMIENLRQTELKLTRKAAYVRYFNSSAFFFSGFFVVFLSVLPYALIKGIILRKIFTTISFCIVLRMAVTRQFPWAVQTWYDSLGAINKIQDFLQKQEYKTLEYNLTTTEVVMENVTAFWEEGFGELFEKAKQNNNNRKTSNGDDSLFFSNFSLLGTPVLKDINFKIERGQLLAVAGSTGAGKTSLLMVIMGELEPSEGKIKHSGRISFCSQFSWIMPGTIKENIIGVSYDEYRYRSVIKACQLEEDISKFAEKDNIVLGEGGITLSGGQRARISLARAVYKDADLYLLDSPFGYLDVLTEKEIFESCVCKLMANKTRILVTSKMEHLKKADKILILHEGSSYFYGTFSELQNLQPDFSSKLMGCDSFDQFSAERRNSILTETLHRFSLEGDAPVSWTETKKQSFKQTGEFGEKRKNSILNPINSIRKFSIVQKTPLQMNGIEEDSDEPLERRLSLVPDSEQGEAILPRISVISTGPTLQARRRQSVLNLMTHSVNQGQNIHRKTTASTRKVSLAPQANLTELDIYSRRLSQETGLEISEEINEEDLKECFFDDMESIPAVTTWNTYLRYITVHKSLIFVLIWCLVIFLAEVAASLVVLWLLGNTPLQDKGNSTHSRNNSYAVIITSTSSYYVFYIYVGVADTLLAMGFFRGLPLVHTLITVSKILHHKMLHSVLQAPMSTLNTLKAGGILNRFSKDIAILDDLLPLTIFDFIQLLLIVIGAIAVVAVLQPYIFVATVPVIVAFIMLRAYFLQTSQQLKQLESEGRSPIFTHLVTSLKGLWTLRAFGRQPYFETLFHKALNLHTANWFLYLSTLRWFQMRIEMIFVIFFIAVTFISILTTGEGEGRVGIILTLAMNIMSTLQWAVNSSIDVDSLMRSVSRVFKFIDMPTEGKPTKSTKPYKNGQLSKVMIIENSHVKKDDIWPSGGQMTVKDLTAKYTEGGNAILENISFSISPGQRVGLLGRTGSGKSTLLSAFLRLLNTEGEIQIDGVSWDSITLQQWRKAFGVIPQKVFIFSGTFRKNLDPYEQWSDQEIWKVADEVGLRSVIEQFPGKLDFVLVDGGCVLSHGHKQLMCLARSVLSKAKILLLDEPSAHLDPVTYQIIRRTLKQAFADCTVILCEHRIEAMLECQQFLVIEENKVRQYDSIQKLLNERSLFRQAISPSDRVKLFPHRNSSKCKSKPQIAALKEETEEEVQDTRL
Recorded EC50 by entry

# example entries with known answers
Cc1nn(CCC(=O)O)c(C)c1S(=O)(=O)N1CCc2c(c(C(F)(F)F)nn2-c2cccc(C(=O)N(C)c3ccc4c(c3)OCO4)c2)C1 : < 1 µM
CN(C(=O)c1cccc(-n2nc(C(F)(F)F)c3c2CCN(C2CCC2)C3)c1)c1ccc2c(c1)OCO2 : < 1 µM
CC(C)Oc1cncc(N(C)C(=O)c2cccc(-n3nc(C(F)(F)F)c4c3C(Oc3ccc(C(=O)O)cc3)CCC4)c2)c1 (racemic) : 1 to 2 µM
CN(C(=O)c1cccc(-n2nc(C(F)(F)F)c3c2C(Oc2ccc(C(=O)O)cc2)CCC3)c1)c1cnc2c(c1)COC2 (racemic) : 1 to 2 µM
CN(C(=O)c1cccc(-n2nc(C(F)(F)F)c3c2C(Oc2cncc(C(=O)O)c2)CCC3)c1)c1ccc2c(c1)OC(F)(F)O2 (single isomer, unassigned) [Compound 271] : < 1 µM

Now consider the entry below.
## Task For the compound CN(C(=O)c1cccc(-n2nc(C(F)(F)F)c3c2C(Oc2ccc(C(=O)O)cn2)COC3)c1)c1ccc2c(c1)OC(F)(F)O2 (single isomer, unassigned) [Compound 277] , what EC50 is on record?
## Result < 1 µM

* * *

target: mutant CFTR (Homo sapiens, UniProt P13569, DEL508-508); construct: expressed in transfected cells; assay: Fluorescence (HS-YFP) assay for CFTR activity, corrector assay; assay type: cell-based; details: CFBE41o- and FRT cells with stable expression of mutant CFTR, read-out: activity (EC50)
pEC50: −log10 of the molar value.
observed_property: pEC50

# example entries with known answers
CN(C(=O)c1cccc(-n2nc(C(F)(F)F)c3c2C(Oc2ncc(C(=O)O)cn2)COC3)c1)c1cnc2c(c1)CCC2 (racemic) [Compound 305] : > 6.00
CN(C(=O)c1cccc(-n2nc(C(F)(F)F)c3c2C(Oc2ccc(C(=O)O)nc2)CCC3)c1)c1ccc2c(c1)OC(F)(F)O2 (single isomer, unassigned) [Compound 185] : > 6.00
CN(C(=O)c1cccc(-n2nc(C(F)(F)F)c3c2C(Oc2ccc(C(=O)O)cc2)CCC3)c1)c1ccnc(OC(F)F)c1 (single isomer, unassigned) [Compound 288] : > 6.00
CN(C(=O)c1cccc(-n2nc(C(F)(F)F)c3c2C(Oc2ccc(C(=O)O)cc2)CCC3)c1)c1ccc2c(c1)OCC2 (single isomer, unassigned) [Compound 279] : > 6.00
CN(C(=O)c1cccc(-n2nc(C(F)(F)F)c3c2C(Oc2ccc(C(=O)O)cc2)CCC3)c1)c1ccnc(C(F)(F)F)c1 (racemic) [Compound 315] : 5.70 to 6.00

## Task For the compound CN(C(=O)c1cccc(-n2nc(C(F)(F)F)c3c2C(Oc2ccc(C(=O)O)cc2)COC3)c1)c1ccc2c(c1)OCC2 (single isomer, unassigned) [Compound 283] , what pEC50 is on record?
## Result 5.70 to 6.00

## Task For the compound Cc1nc2ccc(N(C)C(=O)c3cccc(-n4nc(C(F)(F)F)c5c4CCN(S(=O)(=O)c4c(C)noc4C)C5)c3)cc2o1 [Compound 137] , what pEC50 is on record?
## Result > 6.00

## Task For the compound Cc1noc(C)c1S(=O)(=O)N1CCc2c(c(C(F)(F)F)nn2-c2cccc(C(=O)N(C)c3ccc4c(c3)OC(F)(F)O4)c2)C1 [Compound 096] , what pEC50 is on record?
## Result > 6.00

## Task For the compound CN(C(=O)c1cccc(-n2nc(C(F)(F)F)c3c2CCN(S(=O)(=O)c2cccc(C(=O)O)c2)C3)c1)c1ccc2c(c1)OCO2 [Compound 061] , what pEC50 is on record?
## Result < 5.70

## Task For the compound Cc1[nH]nc(C(=O)O)c1S(=O)(=O)N1CCc2c(c(C(F)(F)F)nn2-c2cccc(C(=O)N(C)c3ccc4c(c3)OCO4)c2)C1 [Compound 089] , what pEC50 is on record?
## Result > 6.00
